System: Mus musculus
Test: Inhibition of chymotrypsin-like activity of 20S proteasome in BALB/c mouse adrenal gland at 20 mg/kg, po after 1 hr
Format: functional
Design: scale not given: the % may be the effect or the level left
reportedProperty: Activity

[[record]]
smilescode = "COC[C@H](NC(=O)c1cc(C)on1)C(=O)N[C@H](C(=O)N[C@@H](CC(C)C)C(=O)[C@@]1(C)CO1)C(C)C"
reportedproperty = "Activity"
experimentalvalue = "12%"

[[record]]
smilescode = "COC[C@H](NC(=O)c1cc(C)on1)C(=O)N[C@@H](Cc1ccccc1)C(=O)N[C@@H](CC(C)C)C(=O)[C@@]1(C)CO1"
reportedproperty = "Activity"
experimentalvalue = "33%"

[[record]]
smilescode = "COC[C@H](NC(=O)c1cc(C)on1)C(=O)N[C@@H](CC#N)C(=O)N[C@@H](CC(C)C)C(=O)[C@@]1(C)CO1"
reportedproperty = "Activity"
experimentalvalue = "40%"

[[record]]
smilescode = "COC[C@H](NC(=O)c1cc(C)on1)C(=O)N[C@@H](C)C(=O)N[C@@H](CC(C)C)C(=O)[C@@]1(C)CO1"
reportedproperty = "Activity"
experimentalvalue = "8%"

[[record]]
smilescode = "COC[C@H](NC(=O)c1cc(C)on1)C(=O)N[C@@H](Cc1ccsc1)C(=O)N[C@@H](CC(C)C)C(=O)[C@@]1(C)CO1"
reportedproperty = "Activity"
experimentalvalue = "117%"

[[record]]
smilescode = "COC[C@H](NC(=O)c1cc(C)on1)C(=O)N[C@@H](COC)C(=O)N[C@@H](CC(C)C)C(=O)[C@@]1(C)CO1"
reportedproperty = "Activity"
experimentalvalue = "9%"

[[record]]
smilescode = "COC[C@H](NC(=O)c1cc(C)on1)C(=O)N[C@@H](CC1CCCCC1)C(=O)N[C@@H](CC(C)C)C(=O)[C@@]1(C)CO1"
reportedproperty = "Activity"
experimentalvalue = "56%"

[[record]]
smilescode = "COC[C@H](NC(=O)c1cc(C)on1)C(=O)N[C@@H](CC(C)C)C(=O)N[C@@H](CC(C)C)C(=O)[C@@]1(C)CO1"
reportedproperty = "Activity"
experimentalvalue = "37%"

[[record]]
smilescode = "COC[C@H](NC(=O)c1cc(C)on1)C(=O)N[C@@H](Cc1cscn1)C(=O)N[C@@H](CC(C)C)C(=O)[C@@]1(C)CO1"
reportedproperty = "Activity"
experimentalvalue = "39%"

[[record]]
smilescode = "CC[C@H](NC(=O)[C@H](COC)NC(=O)c1cc(C)on1)C(=O)N[C@@H](CC(C)C)C(=O)[C@@]1(C)CO1"
reportedproperty = "Activity"
experimentalvalue = "90%"


---

Test: Metabolic stability in mouse liver microsomes assessed as extraction ratio at 1 uM
Assay type: ADME, Microsome
Conditions: read-out: ERH
reportedProperty: hepatic extraction ratio at 1 µM

[[record]]
smilescode = "CC(C)C[C@H](NC(=O)CN1CCOCC1)C(=O)N[C@@H](Cc1ccccc1)C(=O)N[C@@H](CC(C)C)C(=O)[C@@]1(C)CO1"
experimentalvalue = 0.95


---

Test: Inhibition of chymotrypsin-like activity of 20S proteasome in human MOLT4 cells after 1 hr by […]
Assay type: cell-based
Conditions: MOLT-4, 1 h
pIC50: −log10 of the molar value.
reportedProperty: pIC50

[[record]]
smilescode = "COC[C@H](NC(=O)c1ccon1)C(=O)N[C@@H](COC)C(=O)N[C@@H](CC(C)C)C(=O)[C@@]1(C)CO1"
operatorsymbol = "="
experimentalvalue = 6.77

[[record]]
smilescode = "CC(C)C[C@H](NC(=O)c1cc(Cn2cncn2)on1)C(=O)N[C@@H](Cc1ccccc1)C(=O)N[C@@H](CC(C)C)C(=O)[C@@]1(C)CO1"
operatorsymbol = "="
experimentalvalue = 7.21

[[record]]
smilescode = "COC[C@H](NC(=O)c1cc(C)on1)C(=O)N[C@@H](COC)C(=O)N[C@@H](CC(C)C)C(=O)[C@@]1(C)CO1"
operatorsymbol = "="
experimentalvalue = 7.32

[[record]]
smilescode = "COC[C@H](NC(=O)c1ccon1)C(=O)N[C@@H](COC)C(=O)N[C@@H](Cc1ccccc1)C(=O)[C@@]1(C)CO1"
operatorsymbol = "="
experimentalvalue = 7.33

[[record]]
smilescode = "CC(C)C[C@H](NC(=O)c1cnccn1)C(=O)N[C@@H](Cc1ccccc1)C(=O)N[C@@H](CC(C)C)C(=O)[C@@]1(C)CO1"
operatorsymbol = "<"
experimentalvalue = 6.00

[[record]]
smilescode = "COC[C@H](NC(=O)c1cc(C)on1)C(=O)N[C@H](C(=O)N[C@@H](CC(C)C)C(=O)[C@@]1(C)CO1)C(C)C"
operatorsymbol = "="
experimentalvalue = 6.83

[[record]]
smilescode = "CC(C)C[C@H](NC(=O)[C@H](Cc1ccccc1)NC(=O)[C@H](Cc1ccccn1)NC(=O)c1cc(CN2CCOCC2)on1)C(=O)[C@@]1(C)CO1"
operatorsymbol = "="
experimentalvalue = 7.51


---

Test system: Mus musculus
Experiment: Inhibition of chymotrypsin-like activity of 20S proteasome in BALB/c mouse adrenal gland at 10 mg/kg, po after 1 hr
Assay type: functional
Parameters: scale not given: the % may be the effect or the level left
Items are presented alongside their recorded Activity.
reportedProperty: Activity

[[record]]
smilescode = "COC[C@H](NC(=O)c1cc(OC)no1)C(=O)N[C@@H](COC)C(=O)N[C@@H](CC(C)C)C(=O)[C@@]1(C)CO1"
reportedproperty = "Activity"
experimentalvalue = "21%"

[[record]]
smilescode = "COC[C@H](NC(=O)c1ccon1)C(=O)N[C@@H](COC)C(=O)N[C@@H](Cc1ccccc1)C(=O)[C@@]1(C)CO1"
reportedproperty = "Activity"
experimentalvalue = "34%"

[[record]]
smilescode = "CCOc1cc(C(=O)N[C@@H](COC)C(=O)N[C@@H](COC)C(=O)N[C@@H](CC(C)C)C(=O)[C@@]2(C)CO2)no1"
reportedproperty = "Activity"
experimentalvalue = "4%"

[[record]]
smilescode = "COC[C@H](NC(=O)c1cc(C)on1)C(=O)N[C@@H](COC)C(=O)N[C@@H](CC(C)C)C(=O)[C@@]1(C)CO1"
reportedproperty = "Activity"
experimentalvalue = "21%"

[[record]]
smilescode = "COC[C@H](NC(=O)c1cc(C)on1)C(=O)N[C@@H](COC)C(=O)N[C@@H](Cc1ccccc1)C(=O)[C@@]1(C)CO1"
reportedproperty = "Activity"
experimentalvalue = "43%"

[[record]]
smilescode = "COC[C@H](NC(=O)c1ccon1)C(=O)N[C@@H](COC)C(=O)N[C@@H](CC(C)C)C(=O)[C@@]1(C)CO1"
reportedproperty = "Activity"
experimentalvalue = "14%"


---

Assay: Chemical stability in simulated intestinal fluid assessed as compound remaining at 4 uM after 15 mins
Type: physicochemical
Settings: read-out: Stability
Entries and their measured remaining at 0.25 h, 4 µM follow.
reportedProperty: remaining at 0.25 h, 4 µM (%)

[[record]]
molecule = "COC[C@H](NC(=O)c1cc(C)on1)C(=O)N[C@@H](Cc1ccccc1)C(=O)N[C@@H](CC(C)C)C(=O)[C@@]1(C)CO1"
reportedproperty = "remaining at 0.25 h, 4 µM"
operatorsymbol = "="
experimentalvalue = 90

[[record]]
molecule = "COC[C@H](NC(=O)c1cc(C)on1)C(=O)N[C@@H](CC1CCCCC1)C(=O)N[C@@H](CC(C)C)C(=O)[C@@]1(C)CO1"
reportedproperty = "remaining at 0.25 h, 4 µM"
operatorsymbol = "="
experimentalvalue = 75

[[record]]
molecule = "Cc1cc(C(=O)N[C@@H](Cc2ccncc2)C(=O)N[C@@H](Cc2ccccc2)C(=O)N[C@@H](CC(C)C)C(=O)[C@@]2(C)CO2)no1"
reportedproperty = "remaining at 0.25 h, 4 µM"
operatorsymbol = "="
experimentalvalue = 90

[[record]]
molecule = "COCC[C@H](NC(=O)c1cc(C)on1)C(=O)N[C@@H](Cc1ccccc1)C(=O)N[C@@H](CC(C)C)C(=O)[C@@]1(C)CO1"
reportedproperty = "remaining at 0.25 h, 4 µM"
operatorsymbol = "="
experimentalvalue = 80

[[record]]
molecule = "COC[C@H](NC(=O)c1ccon1)C(=O)N[C@@H](COC)C(=O)N[C@@H](CC(C)C)C(=O)[C@@]1(C)CO1"
reportedproperty = "remaining at 0.25 h, 4 µM"
operatorsymbol = "="
experimentalvalue = 90

[[record]]
molecule = "COCC[C@H](NC(=O)c1cc(CN2CCOCC2)on1)C(=O)N[C@@H](Cc1ccccc1)C(=O)N[C@@H](CC(C)C)C(=O)[C@@]1(C)CO1"
reportedproperty = "remaining at 0.25 h, 4 µM"
operatorsymbol = "="
experimentalvalue = 90

[[record]]
molecule = "COC[C@H](NC(=O)c1cc(C)on1)C(=O)N[C@@H](Cc1ccsc1)C(=O)N[C@@H](CC(C)C)C(=O)[C@@]1(C)CO1"
reportedproperty = "remaining at 0.25 h, 4 µM"
operatorsymbol = "="
experimentalvalue = 90

[[record]]
molecule = "Cc1cc(C(=O)N[C@@H](Cc2cccnc2)C(=O)N[C@@H](Cc2ccccc2)C(=O)N[C@@H](CC(C)C)C(=O)[C@@]2(C)CO2)no1"
reportedproperty = "remaining at 0.25 h, 4 µM"
operatorsymbol = "="
experimentalvalue = 90

[[record]]
molecule = "CC(C)C[C@H](NC(=O)[C@H](CCc1ccccc1)NC(=O)CN1CCOCC1)C(=O)N[C@@H](Cc1ccccc1)C(=O)N[C@@H](CC(C)C)C(=O)[C@@]1(C)CO1 [CARFILZOMIB]"
reportedproperty = "remaining at 0.25 h, 4 µM"
operatorsymbol = "<"
experimentalvalue = 5

[[record]]
molecule = "CCOc1cc(C(=O)N[C@@H](COC)C(=O)N[C@@H](COC)C(=O)N[C@@H](Cc2ccccc2)C(=O)[C@@]2(C)CO2)no1"
reportedproperty = "remaining at 0.25 h, 4 µM"
operatorsymbol = "="
experimentalvalue = 85

[[record]]
molecule = "COC[C@H](NC(=O)c1cc(C)on1)C(=O)N[C@H](C(=O)N[C@@H](CC(C)C)C(=O)[C@@]1(C)CO1)C(C)C"
reportedproperty = "remaining at 0.25 h, 4 µM"
operatorsymbol = "="
experimentalvalue = 95

[[record]]
molecule = "COC[C@H](NC(=O)c1cc(C)on1)C(=O)N[C@@H](CC#N)C(=O)N[C@@H](CC(C)C)C(=O)[C@@]1(C)CO1"
reportedproperty = "remaining at 0.25 h, 4 µM"
operatorsymbol = "="
experimentalvalue = 100

